- System: PPARg:RXRa (NR concentration 180 nM, RXRa partner concentration 90 nM)
- MEASUREMENT DESCRIPTION: PBM binding z-score (relative to random genomic background probes); higher = stronger binding; sequences stand for … in GC…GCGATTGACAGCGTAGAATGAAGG
Use t when the recorded PBM binding z-score is no lower than 2; use f when it is lower.

Take a look at these entries with their results.
QUERY SEQUENCE: TGAATGAGGTTAAAAATCAGGGAACGTGGCGTCG
CAT: f

QUERY SEQUENCE: TCTTGTGGATCAGCAGGTTAAGAAAGCTGGCCAA
CAT: f

QUERY SEQUENCE: GCTTGTAGCTCAAGGTTAAGAAAGACTAAGCTAA
CAT: f

QUERY SEQUENCE: AATATAGGGTCATCGTAGGCCAGAGTACGCACAG
CAT: t

QUERY SEQUENCE: ATATCTAGGTAACAAGTTCAGTGAAAGAGAGGAC
CAT: t

Please find the next sequence below.
State whether the measured PBM binding z-score reaches 2, counting equality as reaching it, for TCTTGTAGGTCAAGCAGGTTAAGAAAGCCTGAGT t

###

- System: PPARg:RXRa 90nM:30nM, anti-RXR (NR concentration 90 nM, RXRa partner concentration 30 nM)
- MEASUREMENT DESCRIPTION: PBM binding z-score (relative to random genomic background probes); higher = stronger binding; sequences stand for … in GC…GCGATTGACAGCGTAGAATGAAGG
Use MET when the recorded PBM binding z-score is no lower than 2; use NOT MET when it is lower.

Take a look at these entries with their results.
QUERY SEQUENCE: TAGCCTAGGTCATTCAGGAGCCAGTATAGAAAGC
TARGET OF ASSAY: PPARg:RXRa 90nM:30nM, anti-RXR (NR concentration 90 nM, RXRa partner concentration 30 nM)
CAT: NOT MET
//
QUERY SEQUENCE: ATACCAAGGTGATCGTGAAGTCGTTGATACTAAC
TARGET OF ASSAY: PPARg:RXRa 90nM:30nM, anti-RXR (NR concentration 90 nM, RXRa partner concentration 30 nM)
CAT: NOT MET
//
QUERY SEQUENCE: TCTTCTAGATCAGCAGGTTAAGAAAGCTGGCCAA
TARGET OF ASSAY: PPARg:RXRa 90nM:30nM, anti-RXR (NR concentration 90 nM, RXRa partner concentration 30 nM)
CAT: MET

State whether the measured PBM binding z-score reaches 2, counting equality as reaching it, for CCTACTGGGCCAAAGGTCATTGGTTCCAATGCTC MET

State whether the measured PBM binding z-score reaches 2, counting equality as reaching it, for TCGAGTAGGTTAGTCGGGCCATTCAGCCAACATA NOT MET

###

- Tested on: RXRa DBDmut IVT, anti-RXR (DBD mutation: RXRa K156A/R161A, NR concentration 90 nM)
- MEASUREMENT DESCRIPTION: PBM binding z-score (relative to random genomic background probes); higher = stronger binding; sequences stand for … in GC…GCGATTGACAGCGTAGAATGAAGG
Use satisfied when the recorded PBM binding z-score is no lower than 0.8; use not satisfied when it is lower.

QUERY SEQUENCE: TCTTGTAGATCAAGCAGGTTAATAAAGCCTGAGT
CAT: not satisfied

State whether the measured PBM binding z-score reaches 0.8, counting equality as reaching it, for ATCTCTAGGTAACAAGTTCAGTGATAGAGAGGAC satisfied

State whether the measured PBM binding z-score reaches 0.8, counting equality as reaching it, for ACTAGTTGGTCAGCTGAGGTCACATACAATTCGG satisfied
